Recorded values, source PubChem BioAssay (NCI).

System: A498 renal
assayInfo: NCI-60 one-dose screen, 48 h
conditionDetails: 10 µM unless noted
Compounds without any hit were thinned out: in the full panel of roughly 83,000, 20% have a hit. Activity calls are given as the source filed them. How the source made its calls: active means growth percent below 10; inactive means the rest.
Your answer must be one of the following: true (1) for active, false (0) for inactive

Cc1ccc(-c2ccc(/C=C(\C#N)c3nc(-c4ccco4)cs3)o2)cc1    false (0)

(Q) Recorded test call requested for COc1cc(-c2nc(-c3ccccc3)c(-c3ccccc3)[nH]2)cc(OC)c1O
(A) false (0)

(Q) Recorded test call requested for Cc1[c-]onc1C.Cc1[c-]onc1C.[Ag].[Ag].[NH-]S(=O)(=O)c1ccc(N=Nc2cc(N=Nc3ccc(S([NH-])(=O)=O)cc3)c3c(NC(=O)C(Cl)Cl)cccc3c2OC(=O)C(Cl)Cl)cc1
(A) false (0)

(Q) Recorded test call requested for C=C(C)[C@@H]1CC[C@]2(C(=O)OC)CC[C@]3(C)[C@H](CC[C@@H]4[C@@](C)(CC/C(N)=N/O)[C@H](C(=C)C)CC[C@]43C)[C@@H]12
(A) false (0)

(Q) Recorded test call requested for Cn1cc(-c2nc(-c3c[nH]c4ncccc34)cs2)c2cc(F)ccc21
(A) false (0)

(Q) Recorded test call requested for N#Cc1cnc2cc(OC[C@@H](O)CO)c(NC(=O)C3CCCC3)cc2c1Nc1ccc(OCc2cccc(F)c2)c(Cl)c1
(A) false (0)

----------
Test system: OVCAR-3 ovarian
assayInfo: NCI-60 one-dose screen, 48 h (100 = growth as untreated, 0 = no growth, -100 = all killed)
conditionDetails: 10 µM unless noted
The panel holds about 83,000 compounds, 20% with a hit somewhere; the sample as a whole holds those more often.
Please mark MET if the recorded growth is equal to or greater than 60%, and NOT MET if it falls below.

Observe how each entry below is paired with its result.
COC1=C(Br)C(=O)C(OC)=C(Br)C1=O    MET
O=C(O)/C(=C/c1ccc(O)cc1)c1ccccc1    MET
C=C(C)[C@@H]1CC[C@]2(C)[C@H](CC=C3[C@@H]4CC(C)(C)CC[C@]4(C=O)CC[C@]32C)[C@@]1(C)CCCN    MET
O=c1[nH]c2c3ccncc3cc(-c3cccc(Cl)c3)c2c2cnccc12    NOT MET
COc1ccc2c(c1)c(-c1nc(-c3c[nH]c4ncccc34)cs1)cn2C    MET
COc1ccc(-c2cc(=O)oc3ccc(Cl)cc23)cc1F    NOT MET
COc1ccc(C(=O)c2ccc(C)cc2)c(OC)c1OC    MET
COc1cc(-c2cc(-c3nc4ccccc4[nH]3)[nH]n2)cc(OC)c1OC    NOT MET

(Q) Hello, I need to know if COc1cc2nc(Cl)nc(Nc3cccc(C(=O)/C=C/c4ccccc4)c3)c2cc1OC has measured growth not below 60%. Thanks!
(A) NOT MET

(Q) Hello, I need to know if Clc1ccc2[nH]cc(-c3nc(-c4c[nH]c5ncccc45)cs3)c2c1 has measured growth not below 60%. Thanks!
(A) NOT MET

(Q) Hello, I need to know if CC(C)(C)c1ccc(OP(=S)(N/N=C/c2ccccc2O)Oc2ccc(C(C)(C)C)cc2)cc1 has measured growth not below 60%. Thanks!
(A) NOT MET

(Q) Hello, I need to know if NC(=O)[C@@H]1CC2CCC1C2 (some centres undefined) has measured growth not below 60%. Thanks!
(A) MET

(Q) Hello, I need to know if Cc1nn(-c2ccc(Br)cc2)c2nc3[nH]c(=O)[nH]c(=O)c3nc12 has measured growth not below 60%. Thanks!
(A) MET

(Q) Hello, I need to know if Cc1csc(Nc2nc(-c3ccc(Cl)cc3)nc(C(Cl)(Cl)Cl)n2)n1 has measured growth not below 60%. Thanks!
(A) MET

----------
Tested on: SK-MEL-2 melanoma
assayInfo: NCI-60 one-dose screen, 48 h (100 = growth as untreated, 0 = no growth, -100 = all killed)
conditionDetails: 10 µM unless noted
About 83,000 compounds went through this panel and 20% of them were active in at least one assay; those are over-represented in the sample as a whole.
propertyLabel: growth (%)
Answers are plain numbers, in %.

Record excerpt, results attached:
COc1cc(NC(C)CN(CC(C)C)C(C)C)c2ncccc2c1 (configuration not stated)    113
N#CC1=C(N)Oc2c(sc3c(F)cccc23)C1c1ccc(Cl)cc1 (configuration not stated)    -3.89
Fc1ccc(Nc2nnc(-c3ccc(Cl)cc3)o2)cc1    106
O=C(CI)Nc1ccc(O)c2ccccc12    -1.68
COc1ccc2c(c1)c(-c1nc(-c3c[nH]c4ncccc34)cs1)cn2CCN    75.2

Here are 8 compounds. What values of growth were reported for them?
1. COC(=O)[C@]12CC[C@@H](C)[C@H](C)[C@@H]1C1=CC[C@@H]3[C@@]4(C)C[C@@H](OC(C)=O)[C@H](O)[C@@](C)(COC(C)=O)[C@@H]4[C@H](O)C[C@@]3(C)[C@]1(C)CC2
2. CCCCN1CCCCn2c1nc1c2c(=O)n(C)c(=O)n1C
3. COc1ccc2c(c1)C(Br)=C(CCO)C2c1ccccc1 (configuration not stated)
4. CC(C)(C)CC(C)(C)c1ccc(OCCOCC[N+](C)(C)CC(=O)[O-])cc1
5. CCOc1ccc(NC(=O)c2ccccc2-c2ccccc2C(=O)O)cc1
6. O=c1[nH]c(=S)[nH]c2nc[nH]c12
7. CC(=O)O[C@H]1CC[C@@]2(C)[C@@H](CC[C@@H]3[C@@H]2CC(=O)[C@@]2(C)[C@H]3C[C@@H](C3CCCC3=O)[C@@H]2C(C)=O)C1 (some centres not stated)
8. CCSc1ncnc2c1ncn2C1OC(CO)C(O)C1O (configuration not stated)

(A)
-73.6
91.9
85
117
101
117
111
63.4

Here are 3 compounds. What values of growth were reported for them?
1. Cc1cc(N2CCN(C)CC2)nc(N(CCNc2ccnc3cc(Cl)ccc23)Cc2ccco2)n1
2. N#Cc1cnc2cc(OC[C@@H](O)CO)c(NC(=O)CC3CSSC3)cc2c1Nc1ccc(OCc2cccc(F)c2)c(Cl)c1
3. Oc1cccc2oc(=S)[nH]c12

(A)
55.8
-67.7
109

(Q) Value lookup for growth; key = Brc1ccc2[nH]cc(-c3nc(-c4c[nH]c5ncccc45)cs3)c2c1
(A) 36.3

----------
System: COLO 205 colon
assayInfo: NCI-60 one-dose screen, 48 h
conditionDetails: 10 µM unless noted
This is part of a sample that, as a whole, favours compounds with a hit. Of some 83,000 tested, about 20% had one in any assay. Active and inactive are the calls of the source. The calls were made as follows: active = growth percent below 10; inactive = the rest.
Your answer must be one of the following: active, inactive

Observe how each entry below is paired with its result.
Cc1cc(Cl)c2c(N(C)C)cccc2n1    inactive
Cc1cc(N2CCOCC2)nc(N(CCCNc2ccnc3cc(Cl)ccc23)Cc2ccco2)n1    active

Could you now consider this next compound?
(Q) Recorded test call requested for CCOc1ccc(NC(=O)c2ccccc2-c2ccccc2C(=O)O)cc1
(A) inactive

----------
Tested on: TK-10 renal
assayInfo: NCI-60 one-dose screen, 48 h
conditionDetails: 10 µM unless noted
Method: Growth inhibition of the TK-10 human tumor cell line is measured as a screen for anti-cancer activity. Cells are grown in 96 well plates and exposed to the test compound for 48 hours. Compounds are tested at a single concentration, which is 10^-5 M for most compounds. The reported endpoint is percent growth (GI% or GIPRCNT), where numbers from 0 - 100% represent growth inhibition, and numbers from -100% - 0 represent cell death. For example, a value of 40 represents 60% growth inhibition. […]
This is part of a sample that, as a whole, favours compounds with a hit. Of some 83,000 tested, about 20% had one in any assay. Activity calls are given as the source filed them. The calls were made as follows: active = growth percent below 10; inactive = the rest.
Your answer must be one of the following: active, inactive

Observe how each entry below is paired with its result.
O=C1C(=O)N(CCCCn2cc(-c3ccccc3)nn2)c2ccccc21    inactive
COC(=O)c1cc(=O)nc(N/N=C/c2ccc(C)cc2)s1    inactive
COc1ccc2c(c1)c(-c1nc(-c3c[nH]c4ncccc34)cs1)cn2CCCN1CCCCC1    inactive
COc1ccccc1-n1cnc(N)c1C(=O)c1cc(OC)c(OC)c(OC)c1    inactive
CN1CCN(c2ccc3nc(-c4[nH]ncc4Nc4ncnc5[nH]ccc45)[nH]c3c2)CC1    active

(Q) Recorded test call requested for Cc1ccccc1-c1nc(C(Cl)Cl)nc2cc(-c3ccccc3)nn12
(A) inactive

----------
Test system: A498 renal
assayInfo: NCI-60 one-dose screen, 48 h (100 = growth as untreated, 0 = no growth, -100 = all killed)
conditionDetails: 10 µM unless noted
The panel holds about 83,000 compounds, 20% with a hit somewhere; the sample as a whole holds those more often. Active and inactive are the calls of the source. The calls were made as follows: active = growth percent below 10; inactive = the rest.
Task for the reader: assign each of the following molecules its reported growth.

Record excerpt, results attached:
CC(C)=CCC[C@](C)(O)[C@H]1CC[C@]2(C)[C@@H]1CC[C@@H]1[C@@]3(C)C/C(=C/c4ccc(Br)cc4)C(=O)C(C)(C)[C@@H]3CC[C@]12C    80.8% (inactive)
[B-][N+](CC)(CC)c1ccccc1    108% (inactive)
CC(=O)c1c(C)[nH]c(-c2nc3ccc(N4CCN(C)CC4)cc3[nH]2)c1-c1ccc(OCC2CCOCC2)cc1    30.8% (inactive)
Brc1ccc2[nH]cc(-c3nc(-c4c[nH]c5ncccc45)cs3)c2c1    43.6% (inactive)
Cc1cc(N(CCNc2ccnc3cc(Cl)ccc23)Cc2ccco2)nc(Cl)n1    20.8% (inactive)

Then there is this molecule:
(Q) Value lookup for growth; key = NCCn1cc(-c2nc(-c3c[nH]c4ncccc34)cs2)c2cc(Br)ccc21
(A) 93.6% (inactive)
